tested.on: T1, Biotinylated TEM1-Fc (murine, UniProt Q9HCU0 18-687 (human entry), limits assumed, biotinylated (sites not given))
T1 construct: Ligand captured on the streptavidin sensor surface in the Biacore analysis; also called rTEM-1-Fc; not shown: Fc portion of a murine gamma heavy chain
T1 sequence (looked up): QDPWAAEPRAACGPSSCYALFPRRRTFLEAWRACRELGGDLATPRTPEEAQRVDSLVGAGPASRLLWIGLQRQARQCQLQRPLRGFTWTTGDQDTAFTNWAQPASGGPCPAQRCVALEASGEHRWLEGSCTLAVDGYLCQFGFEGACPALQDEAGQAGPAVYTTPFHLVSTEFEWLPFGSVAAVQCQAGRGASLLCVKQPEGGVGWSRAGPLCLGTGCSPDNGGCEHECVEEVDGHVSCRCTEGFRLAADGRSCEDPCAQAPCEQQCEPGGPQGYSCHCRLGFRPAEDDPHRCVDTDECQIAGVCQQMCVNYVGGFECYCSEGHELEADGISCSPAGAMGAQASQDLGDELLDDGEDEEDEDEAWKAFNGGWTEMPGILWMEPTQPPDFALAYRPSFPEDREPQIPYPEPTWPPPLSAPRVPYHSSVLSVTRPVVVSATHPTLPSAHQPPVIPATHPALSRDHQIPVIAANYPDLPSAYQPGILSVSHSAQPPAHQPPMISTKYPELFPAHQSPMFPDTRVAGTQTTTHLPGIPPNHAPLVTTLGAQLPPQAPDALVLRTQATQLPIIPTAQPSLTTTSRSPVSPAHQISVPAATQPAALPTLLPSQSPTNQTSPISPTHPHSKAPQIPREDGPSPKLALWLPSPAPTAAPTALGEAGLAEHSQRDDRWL
assay: Biacore SPR, biotinylated TEM1-Fc on streptavidin surface, antibody as analyte, 1:1 model
Description: Biacore analyses were also performed to determine the affinity of selected isolated TEM-1-specific rat antibodies. For these studies streptavidin-coated sensor surfaces were generated by injecting CAP reagent for 5 minutes at a flow rate of 2 μl/min. […] Rat anti-TEM-1 MAbs were injected for 300 seconds at 0.5 nM, 2 nM, 5 nM, 20 nM, and 50 nM concentrations and the dissociations were monitored for 30 minutes at a flow rate of 25 μl/minute. […] The sensorgrams were analyzed using 1:1 binding model.
measurement.label: kon (M⁻¹ s⁻¹)
// units = M⁻¹ s⁻¹; emit number, no label

Example entries and their recorded answers appear below.
# binder Antibody 7H12 (antibody, V domains shown, Rat monoclonal antibody from hybridoma, IgG1/kappa; also called 7H12.H5.E7; ATCC PTA-12545) VH: EVQLVESGGGLVQPGRSMILSCAASGFTFSNFDMAWVRQAPKMGLEWVATITYDGSRTNYRDSVKGRFTISRDSAKNTLYLQMDSLTSEDTATYYCARHGSSYYWFFDFWGPGTMVTVSS VL: ETVMTQSPTSMPTSIGERVTLNCKASQSVGINVDWYQQTPGQSPKLLIYTASNRHTGVPDRFAGSGSGRDFTLTISNVEAEDLVVYYCLQYGSLPFTFGAGTKLELK ; its kon = 1.08e+06

Entry under test: Antibody 16D2 (antibody, V domains shown, Rat monoclonal antibody from hybridoma, IgG2a/kappa; also called 16D2.H12.E7.G9; ATCC PTA-12544) VH: EVQLVESGGGLVQPGRSMKLSCSASGFIFRNYYMAWVRQAPTKGLEWVASTGTGGDFTYYRDSVKGRFTISRDTAESTLYLQMDSLKSEDTATYYCARAYGYFDYWGQGVKVTVSS VL: DIVLTQSPTTLSVTPGETVSLSCRASHSVGTNLHWYQQKTNESPRLLIKYVSQSNSGIPSRFSASGSGTDFTLNIKDVEFDDVSSYFCQQTQSWPLTFGSGTKLEIK . Its kon was 810000

According to the records, this binder Antibody 9A5 (antibody, V domains shown, Rat monoclonal antibody from hybridoma, IgG2a/kappa; also called 9A5.G12.B10.F8.F6; ATCC PTA-12542) VH: EVQLVESGGGLVQPGRSMKLSCAASGFTFRNYYMAWVRQAPTRGLEWVASTGSGGDFTYYRDSVKGRFTISRDTAENTLYLQMDSLRSEDTATYYCARAYGYFDYWGQGVRVTVSS VL: DIVLTQSPTTLSVTPGETVSLSCRASHSVGTNLHWYQQKTNESPRLLIKDASQSMSGIPSRFSASGSGTDFTLNIKNVEFDDVSSYFCQQTQSWPLTFGSGTKLEIK displays kon of 850000

Read the next record carefully.
GET /value?item= Antibody 11D1 (antibody, V domains shown, Rat monoclonal antibody from hybridoma, IgG2a/kappa; also called 11D1.G10.F8; ATCC PTA-12541) VH: EVQLVESDGGLVQPGRSLKLSCAASGFSFSDYYMAWVRQAPTKGLEWVATISYDGSGSYYRDSVKGRFTVSRDNAKTTLYLQMDSLRSEDTATYYCARGGGLDYWGQGVMVTVSS VL: DNVLTQAPLAVSVTPGESASISCRSSKSLLSIEGINSLYWYLQKPGKSPQLLLFRMSNLASGVPDRFSGSGSETDFTLKISQVETEDVGVYYCAQFLEFPFTFGSGTKLEIK &field=kon returns 400000
